Attribute: pIC50
# System: HIV-1 (strain IIIB)
# Test Details: Antiviral activity assay in MT4 cells (propidium iodide based)
# Assay type: cell-based
# Test Conditions: Human immunodeficiency virus 1, IIIB; wild type HIV-1 virus, MT4 cells; read-out: Wildtype virus - IC50
pIC50: −log10 of the molar value.
Parameter Measured: pIC50

• CC(C)CN(C[C@@H](O)[C@H](Cc1ccc(OCc2cccc(C#N)c2)cc1)NC(=O)O[C@H]1CO[C@H]2OCC[C@H]21)S(=O)(=O)c1ccc2c(c1)OCCO2 = 8.00 to 9.00
• COCCNCCCOc1ccc(C[C@H](NC(=O)O[C@H]2CO[C@H]3OCC[C@H]32)[C@H](O)CN(CC(C)C)S(=O)(=O)c2ccc3c(c2)OCO3)cc1 = 7.00 to 8.00
• CC(C)CN(C[C@@H](O)[C@H](Cc1ccc(OCCCC(=O)N(C)C)cc1)NC(=O)OC1CO[C@H]2OCC[C@@H]12)S(=O)(=O)c1ccc2c(c1)OCO2 (stereo in doubt) = 8.00 to 9.00
• CC(C)CN(C[C@@H](O)[C@H](Cc1ccc(OCCCNC(=O)OC(C)(C)C)cc1)NC(=O)O[C@H]1CO[C@H]2OCC[C@H]21)S(=O)(=O)c1ccc2c(c1)OCO2 = 8.00 to 9.00
• O=C(N[C@@H](Cc1ccc(OCc2ccccc2)cc1)[C@H](O)CN(CC1CCCC1)S(=O)(=O)c1ccc2c(c1)OCO2)O[C@H]1CO[C@H]2OCC[C@H]21 = 8.00 to 9.00
